- test.description: yeast display, Sf9 membrane polyspecificity reagent, FACS + sequencing; frameworks hold sequencing errors
measured.parameter: polyreactivity (PSR sort gate)

Sample records with polyreactivity (PSR sort gate):
>  <sequence.data>
QVQLVESAGGLVQAGGSLSLSCAATGSILQEYAMGSYRQAPGTERELVAAITRRGGNTYYADSVKGRFTISRDNAKNTVYLQMNSLKPEDTAVYYCAAPHGKYSWQYEYWGQGTQVTVSS

>  <polyreactivity (PSR sort gate)>
low polyreactivity

$$$$
>  <sequence.data>
QVQLVESGGGLVQAGGSLRLSCAASGSIFVVYGMGWYRQAPGKERELVAAISGGITNYADSVKGRFTISRDNAKNTVYLQMNSLKPEDTAVYYCATVDGAYQYTYDYWGQGTQVTVSS

>  <polyreactivity (PSR sort gate)>
low polyreactivity

$$$$
>  <sequence.data>
QVQLVESGGGLVQAGGSLRLSCAASGIIFSKNAMGWYRQAPGKERELVATINRSGGSTYADSVKGRFTISRDNAKNTVYLQMNSLKPEDTAVYYCAKRASPFWRGYDSWGQGTQVTVSS

>  <polyreactivity (PSR sort gate)>
low polyreactivity

$$$$
>  <sequence.data>
QVQLVESGGGLVQAGGSLRLSCAASGNILFNNSMGWYRQAPGKERELVAAISRSAGSTYYADSVKGSFTISRDNEKNTVYLQMNRLKPEDTAVYYCAAQYFRRSGYWGQGTQVTVSS

>  <polyreactivity (PSR sort gate)>
high polyreactivity

$$$$
>  <sequence.data>
QVQLVESGGGLVQAGGSLRLSCAASGIIFQFYAMGWYRPAPGKERELVAAISRSGGITHYADSVKGRFTISRDNAKNTVYLQMNSLKPEDTAVYYCNAVQPARFVGGFGTGVDYWGQGTQVTVSS

>  <polyreactivity (PSR sort gate)>
high polyreactivity

$$$$
>  <sequence.data>
QVQLVESGGGLVQAGGSLRLTCDASGSTFYIYAMGWYRQAPGKERELVARISGSCGSTYYADSVKGRFTISRDNAKNTVYLQMNSLKPEETAVYDCASDDIYKNYQYYAFPYYRYDYWGQGTQVTVSS

>  <polyreactivity (PSR sort gate)>
low polyreactivity

$$$$

Problem: Using known records, supply polyreactivity (PSR sort gate) for `QVQLVESGGGLVQAGGSLRLSCAAYGNAMGWYRQAPGKERELVASINRSGGRTYYADSVKGRFTISRDNAKNTVYLQMNSLKPEDTAVYYCAARPHYDSDYWGQGTQVTVSS`
Result: low polyreactivity

Problem: Using known records, supply polyreactivity (PSR sort gate) for `QVQLVESGGGLVQAGGSLRLSCAASGSTFLYYDMGWYRQAPGKERELVADITWSGSGTYYADSVKGRFTISRDNAKNTVYLQMNSLKPEDTAVYYCDADDTWRGDQYFYSYDYWGQGTQVTVSS`
Result: low polyreactivity

Problem: Using known records, supply polyreactivity (PSR sort gate) for `QDQLVESGGGLVQAGGSLRLSCASSGSTFVRYAMGWYRQAPGKERELVATISKSGGSTSYADSVKGRFTISRDNAKNTVYLQMNSLKPEDTAVYYCAADFLYIWAIFDYWGQGTQVTVSS`
Result: low polyreactivity

Problem: Using known records, supply polyreactivity (PSR sort gate) for `QVQLVETGGGLVQAGGSLRLSCAASGITFRGYAMGWYRQAPGKERELVAAISGSGGTTYYADSVKGRFTISRDNAKNTVYLQMNSLKPEDTAVYYCNAKAVRGRYVWYDYWGQGTQVTVSS`
Result: high polyreactivity

Problem: Using known records, supply polyreactivity (PSR sort gate) for `QVQLVESGGGLVQAGGSLRLICAASVSTFRKYAMGRYRQAPGKEREFVAAISSSGGRTYYADSVKGRFTISRDNAKNTVYLQMNSLKPEDTAVYYCNAYFRYSYDYWGQGTQVTVSS`
Result: high polyreactivity
